System: PC3 cells
Assay: NAMPT Cell Proliferation Assay (Cell Titer Glo; also performed in the presence of 0.3 mM nicotinamide mononucleotide)
Type: cell-based
Settings: Homo sapiens, PC-3, 120 h, 5 days incubation, cell viability by Cell Titer Glo
pIC50: −log10 of the molar value.
ASSAY READOUT: pIC50

[[record]]
molecule = "CC(C)(C)Cn1cc(-c2ccc(NC(=O)C3CN(c4cccnn4)C3)cn2)cn1"
recorded_measurement = 8.93

[[record]]
molecule = "CC(C)(C)OC(=O)N1CCC(n2cc(NC(=O)C3CN(c4cccnn4)C3)cn2)CC1"
recorded_measurement = 8.00


a. O=C(Nc1ccc(CC2CCN(C(=O)CC3CC3)CC2)cc1)C1CN(c2cccnn2)C1
b. O=C(Nc1ccccc1)c1ccc(NC(=O)C2CN(c3cccnn3)C2)cc1
Q: Of a and b , which one carries the higher reported pIC50? Field: selected label. Fill in the label of the entry you choose.
A: a

I. Cc1ccc(N2CC(C(=O)Nc3ccc(-c4cnn(CC5(C)CCOCC5)c4)cc3)C2)nn1
II. O=C(NC1CC1)c1ccc(NC(=O)C2CN(c3cccnn3)C2)cc1
Q: Of I and II , which one carries the higher reported pIC50? Field: selected label. Fill in the label of the entry you choose.
A: I
(I: 7.18, II: 5.10)

A. O=C(NCC1CCOC1)c1ccc(NC(=O)C2CN(c3cccnn3)C2)cc1 (centres unmarked)
B. CC(=O)N1CCC(Cc2ccc(NC(=O)C3CN(c4cccnn4)C3)cc2)CC1
Q: Of A and B , which one carries the higher reported pIC50? Field: selected label. Fill in the label of the entry you choose.
A: B
(B: 8.19, A: 6.22)

A. CN(C)CCc1ccc(NC(=O)c2ccc(NC(=O)C3CN(c4cccnn4)C3)cc2)cc1
B. O=C(Nc1ccc(CC2CCN(C(=O)c3cn[nH]c3)CC2)cc1)C1CN(c2cccnn2)C1
Q: Of A and B , which shows the smaller pIC50 value? Field: selected label. Fill in the label of the entry you choose.
A: A
